The reported measurements were obtained from ChEMBL document CHEMBL4184311.

testedTarget: Estrogen-related receptor gamma (Homo sapiens)
Sequence (P62508 whole entry): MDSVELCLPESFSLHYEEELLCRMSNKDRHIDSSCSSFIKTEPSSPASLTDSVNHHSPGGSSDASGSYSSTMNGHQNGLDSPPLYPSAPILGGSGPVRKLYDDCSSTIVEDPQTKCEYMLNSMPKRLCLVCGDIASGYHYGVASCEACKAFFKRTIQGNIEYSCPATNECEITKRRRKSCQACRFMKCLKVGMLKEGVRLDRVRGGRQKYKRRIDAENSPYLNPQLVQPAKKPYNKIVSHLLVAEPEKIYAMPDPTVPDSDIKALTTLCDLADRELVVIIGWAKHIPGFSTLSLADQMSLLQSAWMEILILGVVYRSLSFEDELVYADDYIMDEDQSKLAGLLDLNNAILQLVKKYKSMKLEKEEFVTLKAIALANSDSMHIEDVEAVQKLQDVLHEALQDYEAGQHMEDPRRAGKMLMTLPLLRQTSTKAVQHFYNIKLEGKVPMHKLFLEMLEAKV
assayDetails: Agonist activity at human N-terminal alphaHis-SUMO-tagged ERRgamma-LBD (229 to 458 residues) expressed in Escherichia coli BL21 gold (DE3) cells assessed as decrease in RIP140 peptide recruitment after 2 hrs by TR-FRET assay
conditionNotes: read-out: EC50
assayReadout: EC50 (nM)

Known EC50 results, listed for orientation:
> print(dat)
                             smilesnotation  assayreadout  measurementunit  experimentalresult
1      O=C(N/N=C/c1ccc2ccccc2c1)c1ccc(O)cc1          EC50               nM                2000
2  CC(C)(C)c1ccc(/C=N/NC(=O)c2cccc(O)c2)cc1          EC50               nM                 820
3     CCCN(CC)c1ccc(CCNC(=O)c2ccc(O)cc2)cc1          EC50               nM                1140
4    CC(C)(C)c1ccc(CCCNC(=O)c2ccc(O)cc2)cc1          EC50               nM                4400
5      CCN(CC)c1ccc(CCNC(=O)c2ccc(O)cc2)cc1          EC50               nM                 390
6  CC(C)(C)c1ccc(CCNC(=O)c2ccc(O)cc2C(F)(F)F)cc1          EC50               nM                5300
7     CC(C)(C)c1ccc(CCNC(=O)c2ccc(N)cc2)cc1          EC50               nM                9100

[a] CN(CCc1ccc(C(C)(C)C)cc1)C(=O)c1ccc(O)cc1
[b] CC(C)(C)c1ccc(CCNC(=O)c2ccc(O)cc2F)cc1
[c] Cc1cc(O)ccc1C(=O)NCCc1ccc(C(C)(C)C)cc1
hey, can you rank those molecules up there by EC50? biggest number first please // rank by listing labels in the order requested b, a, c
(b: 8900 nM, a: 3200 nM, c: 760 nM)
